Each recorded value in this set is attributed to the RNAGym collection of RNA variant scans (doi:10.1038/s41586-018-0170-7).

B1: tRNA (parent)
chain: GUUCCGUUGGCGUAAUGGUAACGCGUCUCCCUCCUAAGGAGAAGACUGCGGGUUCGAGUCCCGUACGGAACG

variants of: B1; assay: yeast fitness, log relative to wild type (ln ratio); higher = fitter; tRNA-Arg(CCU), competitive growth, 37 C, 1 M NaCl
yeast fitness (ln) class ranges: bin A = under -0.3, bin B = from -0.3 up to -0.1, bin C = -0.1 and over

Task: Sort into band: AGUCCUUUGGCGUAAUGGUAACGCGUUUCCCUCCUAAGGAGACGACUGCGGGUUCGAGUCCCGUAUGGAAUG [G1A U2G G6U C27U A43C C66U C71U]
Result: bin A

Task: Hi, small favor: classify GUUCCUUUGGCGUAAUGGUAACGCGUUUCCCUCCUAAGGAGAAGACUGCGGGUUCGAGUCCCGUAAGGAUUG [G6U C27U C66A A70U C71U] by its yeast fitness (ln) when you get a moment.
Result: bin B
